Overview of reported apparent Kd (screen) across a group of binders:
- TEST_TARGET: T1, TNFR1 (Homo sapiens, UniProt P19438)
- T1 chain: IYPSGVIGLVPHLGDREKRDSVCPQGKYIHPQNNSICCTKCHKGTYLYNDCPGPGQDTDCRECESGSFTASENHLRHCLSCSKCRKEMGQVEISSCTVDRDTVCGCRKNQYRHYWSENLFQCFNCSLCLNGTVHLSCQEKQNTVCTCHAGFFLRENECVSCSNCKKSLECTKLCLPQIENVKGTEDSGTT
- ASSAY_TEXT: yeast display SC50

| BINDER | apparent Kd (screen), nM |
| --- | --- |
| D56C (designed binder) MTLQELLREEALRRAEAEAFRYALELLAEKFPEQKEYLLDLAEEIESQIRSLSGVCVEDVRKFLDKEWAWVKELLAEHPAELAEVEAARAARLAELRAEVEAKVAA | 0.956 |
| A17F (designed binder) MTLQELLREEALRRAEFEAFRYALELLAEKFPEQKEYLLDLAEEIESQIRSLSGVDVEDVRKFLDKEWAWVKELLAEHPAELAEVEAARAARLAELRAEVEAKVAA | 0.49 |
| L38C (designed binder) MTLQELLREEALRRAEAEAFRYALELLAEKFPEQKEYCLDLAEEIESQIRSLSGVDVEDVRKFLDKEWAWVKELLAEHPAELAEVEAARAARLAELRAEVEAKVAA | 4.39 |
| A19P (designed binder) MTLQELLREEALRRAEAEPFRYALELLAEKFPEQKEYLLDLAEEIESQIRSLSGVDVEDVRKFLDKEWAWVKELLAEHPAELAEVEAARAARLAELRAEVEAKVAA | 9.41 |
